Experiment: in vitro
Conditions: Chinese hamster
IC50 by entry:
observable: IC50

| compound | observable | observed.result |
| --- | --- | --- |
| COc1cncc(-c2ccc3nc(N)n(-c4ccc(C(F)(F)F)cc4)c(=O)c3c2)c1 | IC50 | > 100 µM |
| CN1CCN(C(=O)c2cccc(-c3ccc4nc(N)n(-c5ccc(C(F)(F)F)cc5)c(=O)c4c3)c2)CC1 | IC50 | > 50 µM |
| Nc1nc2ccc(-c3cccc(C(=O)N4CCSCC4)c3)cc2c(=O)n1-c1ccc(C(F)(F)F)cc1 | IC50 | > 50 µM |
| Nc1nc2ccc(-c3cccc(C(=O)N4CCOCC4)c3)cc2c(=O)n1-c1ccc(C(F)(F)F)cc1 | IC50 | > 50 µM |
| CNC(=O)c1cccc(-c2ccc3nc(N)n(-c4ccc(C(F)(F)F)cc4)c(=O)c3c2)c1 | IC50 | 96.3 µM |
| C[S+]([O-])c1cccc(-c2ccc3nc(N)n(-c4ccc(C(F)(F)F)cc4)c(=O)c3c2)c1 (centres unmarked) | IC50 | > 100 µM |
| Nc1nc2ccc(-c3cccnc3)cc2c(=O)n1-c1ccc(C(F)(F)F)cc1 | IC50 | > 100 µM |
| CNc1nc2ccc(-c3cccc(S(C)(=O)=O)c3)cc2c(=O)n1-c1ccc(C(F)(F)F)cc1 | IC50 | > 50 µM |

----------
Assay type: in vitro ADME
Details: human liver microsomes
Recorded Metabolic Stability H (% Rem.) by entry

| molecule | Metabolic Stability H (% Rem.) |
| --- | --- |
| Cc1ccc(S(C)(=O)=O)cc1-c1ccc2nc(N)n(-c3ccc(C(F)(F)F)cc3)c(=O)c2c1 [compound 7] | 65 |
| Nc1nc2ccc(-c3cccc(S(=O)(=O)C4CC4)c3)cc2c(=O)n1-c1ccc(C(F)(F)F)cc1 [compound 8] | 85 |
| C[S+]([O-])c1cccc(-c2ccc3nc(N)n(Cc4ccc(C(F)(F)F)cc4)c(=O)c3c2)c1 (stereo not shown) [compound 58] | 52 |
| CN(C)c1nc2ccc(-c3cccc([S+](C)[O-])c3)cc2c(=O)n1-c1ccc(C(F)(F)F)cc1 (stereo not shown) [compound 42] | 82 |
| C[S+]([O-])c1cccc(-c2ccc3c(=O)n(-c4ccc(C(F)(F)F)cc4)c(N)nc3c2)c1 (stereo not shown) [compound 31] | 98 |
| C[S+]([O-])c1cccc(-c2ccc3nc(N)n(C4CCC(F)(F)CC4)c(=O)c3c2)c1 (stereo not shown) [compound 56] | 95 |

----------
Format: in vitro ADME
Conditions: mouse liver microsomes

| compound | Metabolic Stability M (% Rem.) |
| --- | --- |
| Nc1nc2ccc(-c3cccc(C(=O)O)c3)cc2c(=O)n1-c1ccc(C(F)(F)F)cc1 | 98 |
| NC(=O)c1cccc(-c2ccc3c(=O)n(-c4ccc(C(F)(F)F)cc4)c(N)nc3c2)c1 | 92 |
| Nc1nc2ccc(-c3cccc(C(=O)NCCN4CCOCC4)c3)cc2c(=O)n1-c1ccc(C(F)(F)F)cc1 | 59 |
| CNC(=O)c1cccc(-c2ccc3nc(N)n(-c4ccc(C(F)(F)F)cc4)c(=O)c3c2)c1 | 100 |
| CNC(=O)c1cncc(-c2ccc3nc(N)n(-c4ccc(C(F)(F)F)cc4)c(=O)c3c2)c1 | 75 |
| C[S+]([O-])c1cccc(-c2ccc3c(=O)n(-c4ccc(C(F)(F)F)cc4)c(N)nc3c2)c1 (stereo not drawn) | 78 |
| Nc1nc2ccc(-c3cccc(C(=O)N4CCOCC4)c3)cc2c(=O)n1-c1ccc(C(F)(F)F)cc1 | 78 |
| CN(C)CCNC(=O)c1cccc(-c2ccc3nc(N)n(-c4ccc(C(F)(F)F)cc4)c(=O)c3c2)c1 | 56 |
| CN1CCN(C(=O)c2cccc(-c3ccc4nc(N)n(-c5ccc(C(F)(F)F)cc5)c(=O)c4c3)c2)CC1 | 94 |
| C[S+]([O-])c1cccc(-c2ccc3nc(N)n(Cc4ccc(C(F)(F)F)cc4)c(=O)c3c2)c1 (stereo not drawn) | 69 |
| CN(C)c1nc2ccc(-c3cccc([S+](C)[O-])c3)cc2c(=O)n1-c1ccc(C(F)(F)F)cc1 (stereo not drawn) | 80 |
| CN(C)C(=O)c1cccc(-c2ccc3nc(N)n(-c4ccc(C(F)(F)F)cc4)c(=O)c3c2)c1 | 89 |
| COc1ccc(-n2c(N)nc3ccc(-c4cccc([S+](C)[O-])c4)cc3c2=O)cc1 (stereo not drawn) | 99 |
| Nc1nc2ccc(-c3cccc(C(=O)N4CCSCC4)c3)cc2c(=O)n1-c1ccc(C(F)(F)F)cc1 | 22 |
| Nc1nc2cc(-c3cccc(C(F)(F)F)c3)ccc2c(=O)n1-c1ccc(C(F)(F)F)cc1 | 82 |
| C[S+]([O-])c1cccc(-c2ccc3nc(N)n(C4CCC(F)(F)CC4)c(=O)c3c2)c1 (stereo not drawn) | 83 |
| C[S+]([O-])c1cccc(-c2ccc3nc(N)n(-c4cccc(C(F)(F)F)c4)c(=O)c3c2)c1 (stereo not drawn) | 51 |
| CNc1nc2ccc(-c3cccc(S(C)(=O)=O)c3)cc2c(=O)n1-c1ccc(C(F)(F)F)cc1 | 100 |
| CS(=O)(=O)c1cccc(-c2ccc3nc(N)n(-c4ccc(C(F)(F)F)cc4)c(=O)c3c2)c1 | 92 |
| Cc1ccc(S(C)(=O)=O)cc1-c1ccc2nc(N)n(-c3ccc(C(F)(F)F)cc3)c(=O)c2c1 | 90 |
